The measurements presented in this section are drawn from patent US11446298B2.

biological target: EP2 (Homo sapiens); construct: SF295 glioblastoma cells express high endogenous EP2 and no EP4; test: hEP2 cAMP Assay (SF295 glioblastoma cells, HTRF cAMP, PGE2 75 nM); conditions: antagonistic activity, PGE2 75 nM (EC80)
Sequence (P43116 whole entry): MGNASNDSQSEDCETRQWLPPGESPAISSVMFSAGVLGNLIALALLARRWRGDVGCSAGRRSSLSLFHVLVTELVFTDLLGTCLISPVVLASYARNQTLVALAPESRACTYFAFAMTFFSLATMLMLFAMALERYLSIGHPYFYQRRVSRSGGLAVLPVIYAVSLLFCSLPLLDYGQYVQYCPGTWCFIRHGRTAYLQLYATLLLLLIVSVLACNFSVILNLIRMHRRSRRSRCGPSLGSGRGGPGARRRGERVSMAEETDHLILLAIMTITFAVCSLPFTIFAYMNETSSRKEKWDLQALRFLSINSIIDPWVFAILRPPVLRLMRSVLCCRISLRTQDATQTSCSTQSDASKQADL
endpoint-name: IC50 (µM)
Kindly provide the numeric value in µM only, without the unit symbol.

COc1ccc2ccccc2c1CCNc1cc(-c2cc3c(C(=O)O)cccc3[nH]2)ncn1; 0.015
CCOc1cc(-c2cc(NCCc3cccc4ccsc34)ncn2)ccc1CC(=O)O; 0.784
CCOc1cc(-c2cc(NCCc3c(OC)ccc4ncccc34)ncn2)sc1C(=N)NO; 0.119
CCOc1cc(-c2cc(NCCc3cccc4ccn(C)c34)ncn2)sc1C(=O)O; 0.015
CCOc1cc(-c2cc(NCCc3c(OC)c(OC)cc4ccccc34)ncn2)sc1C(=O)O; 0.077
COc1ccc2ncccc2c1CCNc1cc(-c2ccnc(N3CCCCC3)c2)ncn1; 0.21
CCOc1cc(-c2cc(NCCc3cc(OC)cc4ccccc34)ncn2)ccc1C(=O)O; 0.525
COc1ccc2cc(F)cc(CCNc3cc(-c4cc(C(F)(F)F)c(C(=O)O)s4)ncn3)c2n1; 0.506
O=C(O)c1ccc(-c2cc(NCCc3cccc4sccc34)ncn2)cc1OC1CCC1; 0.25
COc1cc(-c2cc(NCCc3c(OC)ccc4ncccc34)ncn2)sc1C1(O)COC1; 0.197

QUERY: Query IC50 for CCOc1cc(-c2cc(NCCc3c(OC)ccc4c3OCO4)ncn2)sc1C(=O)O
RESULT: 0.037

QUERY: Query IC50 for CCOc1cc(-c2cc(NCCc3cccc4cc(C)oc34)ncn2)sc1C(=O)O
RESULT: 0.078

QUERY: Query IC50 for CCOc1cc(-c2cc(NCCc3c(OC)ccc4ccccc34)ncn2)sc1C(=O)NS(C)(=O)=O
RESULT: 0.01

QUERY: Query IC50 for CCCc1cc(-c2cc(NCCc3c(OC)ccc4ccccc34)ncn2)cc(F)c1C(=O)O
RESULT: 0.029

QUERY: Query IC50 for CCCOc1ccc2ccccc2c1CCNc1cc(-c2cc(OCC)c(C(=O)O)s2)ncn1
RESULT: 0.022

QUERY: Query IC50 for CCOc1cc(-c2cc(NCCc3c(OC)ccc4c(OC)cccc34)ncn2)ccc1C(=O)O
RESULT: 0.878

QUERY: Query IC50 for COc1ccc2ncccc2c1CCNc1cc(-c2ccc(C(=O)O)c(OC3CCC3)c2)ncn1
RESULT: 0.08

QUERY: Query IC50 for O=C(O)c1ccc(-c2cc(NCCc3cccc4cccnc34)ncn2)cc1OC1CCC1
RESULT: 0.949

QUERY: Query IC50 for CCOc1cc(-c2cc(NCCc3cc(OC)cc4ccccc34)ncn2)sc1C(=O)O
RESULT: 0.031

----------
biological target: EP4 (Homo sapiens, UniProt P35408); construct: BT549 breast cancer cells, express high endogenous EP4 levels and very low EP2 levels; assay: hEP4 cAMP Assay (BT549 breast cancer cells, HTRF cAMP, PGE2 6 nM); details: antagonistic activity, PGE2 6 nM (EC80)
Sequence (P35408 whole entry): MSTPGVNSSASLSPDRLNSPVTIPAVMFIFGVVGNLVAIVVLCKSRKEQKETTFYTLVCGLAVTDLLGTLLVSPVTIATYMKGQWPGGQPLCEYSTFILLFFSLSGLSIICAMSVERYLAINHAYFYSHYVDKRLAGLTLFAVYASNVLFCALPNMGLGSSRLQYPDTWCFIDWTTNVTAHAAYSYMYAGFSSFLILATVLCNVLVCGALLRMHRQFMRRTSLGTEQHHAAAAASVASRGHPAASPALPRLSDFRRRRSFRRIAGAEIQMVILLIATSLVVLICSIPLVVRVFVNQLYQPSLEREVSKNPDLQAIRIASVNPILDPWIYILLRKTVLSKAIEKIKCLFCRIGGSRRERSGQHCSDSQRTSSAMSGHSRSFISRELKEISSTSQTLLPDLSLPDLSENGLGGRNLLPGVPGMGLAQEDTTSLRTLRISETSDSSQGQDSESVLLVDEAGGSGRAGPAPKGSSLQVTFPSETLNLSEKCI
endpoint-name: IC50 (nM)
Kindly provide the numeric value in nM only, without the unit symbol.

CCOc1cc(-c2cc(NCCc3cccc4sccc34)ncn2)sc1C(=O)O [Example 108]; 31
COc1ccc2c(c1CCNc1cc(-c3ccc(C(=O)O)c(OC4CCC4)c3)ncn1)OCO2 [Example 43]; 797
CCOc1cc(-c2cc(NCCc3c(F)ccc4ccccc34)ncn2)ccc1CC(=O)O [Example 97]; 355
CCOc1cc(-c2cc(NCCc3ccc(C)c4ccccc34)ncn2)ccc1OCC(=O)O [Example 76]; 116
CCCOc1ccc2ccccc2c1CCNc1cc(-c2cc(OCC)c(C(=O)O)s2)ncn1 [Example 38]; 48

QUERY: Specify IC50 for CCOc1cc(-c2cc(NCCc3c(OC)ccc4ccccc34)ncn2)sc1CCC(=O)O [Example 131] , system EP4 (Homo sapiens, UniProt P35408).
RESULT: 157

QUERY: Specify IC50 for CCOc1cc(-c2cc(NCCc3c(OC(F)F)ccc4ccccc34)ncn2)sc1C(=O)O [Example 32] , system EP4 (Homo sapiens, UniProt P35408).
RESULT: 72

QUERY: Specify IC50 for CCOc1cc(-c2cc(NCCc3ccc(C(F)F)c4ccccc34)ncn2)ccc1OCC(=O)O [Example 73] , system EP4 (Homo sapiens, UniProt P35408).
RESULT: 102

QUERY: Specify IC50 for COc1cc(-c2cc(NCCc3c(OC)ccc4ncccc34)ncn2)sc1C1(O)COC1 [Example 89] , system EP4 (Homo sapiens, UniProt P35408).
RESULT: 878

QUERY: Specify IC50 for CCOc1cc(-c2cc(NCCc3c(C#N)ccc4c(OC)ccc(F)c34)ncn2)sc1C(=O)O [Example 158] , system EP4 (Homo sapiens, UniProt P35408).
RESULT: 3

----------
target: EP2 (Homo sapiens); construct: SF295 glioblastoma cells express high endogenous EP2 and no EP4; test: hEP2 cAMP Assay (SF295 glioblastoma cells, HTRF cAMP, PGE2 75 nM); conditions: antagonistic activity, PGE2 75 nM (EC80)
pIC50: −log10 of the molar value.
Criterion: pIC50 meeting or surpassing 7. Met: criterion met. Not met: criterion not met.

Known results for molecules:
CCOc1cc(-c2cc(NCCc3ccc(C)c4ccccc34)ncn2)ccc1CC(=O)O [Example 99]; criterion not met
CCOc1cc(-c2cc(NCCc3c(OC)ccc4ncccc34)ncn2)sc1C(=O)O [Example 65]; criterion met
CCc1nc(-c2cc(NCCc3c(OC)ccc4ccccc34)ncn2)sc1C(=O)O [Example 148]; criterion met

From here, focus on the item given below.
QUERY: // inclusive: pIC50 at least 7? input: CCOc1cc(-c2cc(NCCc3c(N)ccc4ccccc34)ncn2)sc1C(=O)O [Example 78]
RESULT: criterion met

----------
# maps each entry to its log10(IC50)
biological target: PTGER2 (EP2) (Homo sapiens, UniProt P43116); construct: host or cells: HEK 293 (PathHunter, stably transfected); assay: hEP2 b-Arrestin Assay (PathHunter HEK 293 PTGER2 b-arrestin cells, PGE2 5 μM); type: cell-based; conditions: antagonistic activity, beta-arrestin assay, HEK 293 PTGER2 cells, PGE2 5 μM (EC80); read-out: hEP2 b-arr IC50
Sequence (P43116 whole entry): as the sequence (P43116 whole entry) above
Heads up, the numbers here are log10 of IC50 in nM units.

CCOc1cc(-c2cc(NCCc3c(OC)ccc4nc(C)ccc34)ncn2)sc1C(=O)O; 1.40
COc1ccc2ncccc2c1CCNc1cc(-c2ccnc(N3CCCCC3)c2)ncn1; 2.28
COc1ccc2ncccc2c1CCNc1cc(-c2ccc(-c3c(O)c(=O)c3=O)cc2)ncn1; 2.16
CCOc1cc(-c2cc(NCCc3c(OC)ccc4c3OCO4)ncn2)sc1C(=O)O; 1.56
CCOc1cc(-c2cc(NCCc3cc(OC)cc4ccccc34)ncn2)sc1C(=O)O; 1.51
CCOc1cc(-c2cc(NCCc3c(F)ccc4ccccc34)ncn2)sc1C(=O)O; 0.90
CCOc1cc(-c2cc(NCCc3cccc4c3ccn4C)ncn2)ccc1OCC(=O)O; 2.03

Next, consider the following compound.
QUERY: Query log10(IC50) for CCOc1ccc2ccccc2c1CCNc1cc(-c2ccc(C(=O)O)c(OC3CCC3)c2)ncn1
RESULT: 1.00

----------
Biological target: EP4 (Homo sapiens, UniProt P35408)
Construct: BT549 breast cancer cells, express high endogenous EP4 levels and very low EP2 levels
Experiment: hEP4 cAMP Assay (BT549 breast cancer cells, HTRF cAMP, PGE2 6 nM)
Conditions: antagonistic activity, PGE2 6 nM (EC80)
Protocol: The antagonistic activities of the compounds of formula (I) on the EP2 and EP4 receptors are also determined in accordance with the following experimental method. Human tumor cell lines expressing endogenously either EP4 or EP2 are used and cAMP accumulation in cells upon PGE2 stimulation is monitored. […] The obtained Delta F (fluorescence) values (665 nm/620 nM) are converted into % cAMP values using the measurements of the cAMP calibrator provided in the kit. […]
endpoint-name: IC50
Answer with the value and then the unit.

Some solved entries appear below for comparison.
COc1ccc2ccccc2c1CCNc1cc(-c2cc3c(C(=O)O)cccc3[nH]2)ncn1; 289 nM
CCSc1cc(-c2cc(NCCc3ccc(C)c4ccccc34)ncn2)ccc1C(=O)O; 76 nM
COc1ccc2ccccc2c1CCNc1cc(-c2cc3ccc(C(=O)O)cc3[nH]2)ncn1; 416 nM
CCOc1cc(-c2cc(NCCc3ccc(C)c4ccccc34)ncn2)sc1C(=O)O; 7 nM

Next, consider the following compound.
QUERY: Query IC50 for CCCCOc1cc(-c2cc(NCCc3c(OC)ccc4ccccc34)ncn2)ccc1C(=O)O
RESULT: 200 nM

----------
# maps each entry to its pIC50
target: EP4 (Homo sapiens, UniProt P35408); construct: BT549 breast cancer cells, express high endogenous EP4 levels and very low EP2 levels; assay: hEP4 cAMP Assay (BT549 breast cancer cells, HTRF cAMP, PGE2 6 nM); details: antagonistic activity, PGE2 6 nM (EC80)
// scale note: pIC50 = -log10(conc_M); give the bare number

QUERY: Query pIC50 for COc1cc(CCNc2cc(-c3ccc(C(=O)O)c(OC4CCC4)c3)ncn2)c2ccccc2c1
RESULT: 6.15

QUERY: Query pIC50 for O=C(O)c1ccc(-c2cc(NCCc3c(F)ccc4ccccc34)ncn2)cc1OC1CCC1
RESULT: 6.43

QUERY: Query pIC50 for CCOc1cc(-c2cc(NCCc3cccc4ccn(C)c34)ncn2)sc1C(=O)O
RESULT: 7.02

QUERY: Query pIC50 for CCOc1cc(-c2cc(NCCc3c(OC)ccc4c(OC)cccc34)ncn2)ccc1OCC(=O)O
RESULT: 6.52

QUERY: Query pIC50 for COc1ccc2ccccc2c1CCNc1cc(-c2cc(OCCO)c(C(=O)O)s2)ncn1
RESULT: 7.29

QUERY: Query pIC50 for CCOc1cc(-c2cc(NCCc3ccc(Cl)c4ccccc34)ncn2)ccc1OCC(=O)O
RESULT: 6.52

QUERY: Query pIC50 for COc1ccc2ccccc2c1CCNc1cc(-c2ccc(C(=O)O)c(OC(F)F)c2)ncn1
RESULT: 6.60

QUERY: Query pIC50 for O=C(O)c1ccc(-c2cc(NCCc3ccc(F)c4ccccc34)ncn2)cc1OC1CCC1
RESULT: 6.17

QUERY: Query pIC50 for Cc1ccc2c(cnn2C)c1CCNc1cc(-c2ccc(-c3c(O)c(=O)c3=O)cc2)ncn1
RESULT: 6.26

QUERY: Query pIC50 for CCOc1cc(-c2cc(NCCc3cccc4cccnc34)ncn2)sc1C(=O)O
RESULT: 6.62
